Molecular target: NPM-ALK (Homo sapiens, UniProt Q9UM73)
Construct: a fusion protein consisting of nucleophosmin (NMP) and the intracellular domain of ALK; the other entry of the earlier key: NPM1 (P06748, Nucleophosmin)
Sequence (Q9UM73 with tags, fused parts or gaps): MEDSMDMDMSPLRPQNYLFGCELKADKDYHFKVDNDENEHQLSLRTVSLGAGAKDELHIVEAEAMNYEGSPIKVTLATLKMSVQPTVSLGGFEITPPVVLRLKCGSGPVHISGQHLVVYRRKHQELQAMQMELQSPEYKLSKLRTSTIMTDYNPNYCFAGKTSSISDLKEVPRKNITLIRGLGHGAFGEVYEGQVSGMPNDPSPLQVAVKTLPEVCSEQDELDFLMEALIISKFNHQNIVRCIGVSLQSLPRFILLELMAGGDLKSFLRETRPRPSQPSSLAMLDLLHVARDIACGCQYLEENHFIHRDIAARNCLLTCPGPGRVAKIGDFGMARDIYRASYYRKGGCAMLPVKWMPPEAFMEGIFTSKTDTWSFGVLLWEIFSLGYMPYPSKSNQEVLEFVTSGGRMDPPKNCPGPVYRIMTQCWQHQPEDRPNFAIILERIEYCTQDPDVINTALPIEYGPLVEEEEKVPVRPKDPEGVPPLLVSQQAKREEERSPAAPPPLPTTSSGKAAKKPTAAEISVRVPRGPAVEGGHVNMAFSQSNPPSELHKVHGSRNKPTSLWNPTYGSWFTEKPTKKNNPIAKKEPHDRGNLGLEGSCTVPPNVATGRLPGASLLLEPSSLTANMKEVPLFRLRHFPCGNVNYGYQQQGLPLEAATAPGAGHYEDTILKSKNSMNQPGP
Experiment: ALK Cellular Assay (phospho-NPM-ALK immunoblot / ALK tyrosine phosphorylation ELISA)
valueKind: IC50

Take a look at these entries with their results.
{"compound": "CN1CCN(c2ccc(-c3cnc4c(c3)N(Cc3cc(F)ccc3F)CCN4)cn2)CC1 [Example 69]", "IC50": "751 to 1000 nM"}
{"compound": "O=C(c1ccc(-c2cnc3c(c2)N(Cc2c(Cl)cccc2Cl)CCN3)cc1)N1CCC(N2CCCC2)CC1 [Example 163]", "IC50": "751 to 1000 nM"}
{"compound": "O=C(c1ccc(-c2cnc3c(c2)N(Cc2c(F)ccc(F)c2Cl)CCN3)cc1)N1CCC[C@H]1CN1CCCC1 [Example 100]", "IC50": "≤ 250 nM"}

Q: Enter IC50 (test system NPM-ALK (Homo sapiens, UniProt Q9UM73)) for CC(c1cc(F)ccc1F)N1CCNc2ncc(-c3ccc(C(=O)N4CCC[C@H]4CN4CCCC4)cc3)cc21 (stereo partly shown) [Example 154]
Ans: 251 to 500 nM

Q: Enter IC50 (test system NPM-ALK (Homo sapiens, UniProt Q9UM73)) for O=C(c1ccc(-c2cnc3c(c2)N(Cc2cc(Cl)ccc2Cl)CCN3)cc1)N1CCC[C@H]1CN1CCCC1 [Example 159]
Ans: 251 to 500 nM

Q: Enter IC50 (test system NPM-ALK (Homo sapiens, UniProt Q9UM73)) for CC(=O)N1CCN(c2cc(-c3cnc4c(c3)N(Cc3cc(Cl)ccc3C(F)(F)F)CCN4)ccn2)CC1 [Example 199]
Ans: ≤ 250 nM

Q: Enter IC50 (test system NPM-ALK (Homo sapiens, UniProt Q9UM73)) for O=C(c1ccc(-c2cnc3c(c2)N(Cc2cc(Cl)ccc2Cl)CCN3)cc1)N1CCC(N2CCCC2)CC1 [Example 160]
Ans: ≤ 250 nM

These data points were gathered from patent US7601716B2.
